Numbers sourced from the supplement of paper PMC5662767.

test system: Drosophila S2 cl14 SmoIP sensor cells; assay: normalized SmoIP GFP fluorescence (untreated unstimulated = 0%, untreated Hh-stimulated = 100%); higher = more Smo activation sensor fluorescence; settings: stimulation: Hh conditioned medium (+Hh); compound concentration: 2 uM; 24 h
Where a name gives a salt, the structure may show the parent alone.
Recorded normalized SmoIP GFP fluorescence by entry
Hi! Could you send only the number? It should be in %, unit omitted.

CNCC(=O)c1ccc(O)c(O)c1 [adrenalone-hcl]    106
C=C1C[C@@H]2[C@H](CC[C@]3(C)C(=O)CC[C@@H]23)[C@@]2(C)C=CC(=O)C=C12 [Exemestane]    115
C[C@H]1CNCCc2ccc(Cl)cc21 [lorcaserin-hcl]    99.3
C[N+](C)(C)CCCCCCCCCC[N+](C)(C)C [decamethonium-bromide]    104

Switching to the query record.
Prompt: Tell me the measured normalized SmoIP GFP fluorescence of C[C@]12CCC(=O)C(O)=C1CC[C@@H]1[C@@H]2CC[C@]2(C)C(=O)CC[C@@H]12 [Formestane] , please.
Completion: 93.9

====

tested on: Drosophila S2 cl14 SmoIP sensor cells; assay: normalized SmoIP GFP fluorescence (untreated unstimulated = 0%, untreated Hh-stimulated = 100%); higher = more Smo activation sensor fluorescence; conditions: stimulation: Hh conditioned medium (+Hh); compound concentration: 2 uM; 24 h
Recorded normalized SmoIP GFP fluorescence by entry
Hi! Could you send only the number? It should be in %, unit omitted.

O=C(O[C@H]1C[N+]2(CCCOc3ccccc3)CCC1CC2)C(O)(c1cccs1)c1cccs1 [aclidinium-bromide]    97.3
Cc1ccccc1-n1c(Cn2ncc3c(N)ncnc32)nc2cccc(C)c2c1=O    115
O=C(O)CNC(=O)c1c(O)c2ccccc2n(Cc2ccccc2)c1=O    109

Switching to the query record.
Prompt: Tell me the measured normalized SmoIP GFP fluorescence of CCN1CCN(C(=O)Cc2ccc(Nc3ncc(F)c(Nc4ccc(C(=O)Nc5ccccc5Cl)cc4)n3)cc2)CC1 [Aurora-A-Inhibitor-I] , please.
Completion: 151

====

system: Drosophila S2 cl14 SmoIP sensor cells; assay: normalized SmoIP GFP fluorescence (untreated unstimulated = 0%, untreated Hh-stimulated = 100%); higher = more Smo activation sensor fluorescence; conditions: stimulation: mock conditioned medium (-Hh); compound concentration: 2 uM; 24 h
Recorded normalized SmoIP GFP fluorescence by entry
Hi! Could you send only the number? It should be in %, unit omitted.

O=C(O)CNC(=O)c1c(O)c2ccccc2n(Cc2ccccc2)c1=O    -2.82
C[C@]12CC[C@H]3[C@@H](CC[C@@]45O[C@@H]4C(O)=C(C#N)C[C@]35C)[C@@H]1CC[C@@H]2O    -0.265
COC[C@H]1OC(=O)c2coc3c2[C@@]1(C)C1=C(C3=O)[C@@H]2CCC(=O)[C@@]2(C)C[C@H]1OC(C)=O    9.08
N#CC(C#N)=Cc1ccc(O)c(O)c1    -12
CCN1CCN(C(=O)Cc2ccc(Nc3ncc(F)c(Nc4ccc(C(=O)Nc5ccccc5Cl)cc4)n3)cc2)CC1    2.11
CCOc1ccccc1-n1c(C(C)N2CCN(C(=O)COc3ccc(Cl)cc3)CC2)nc2ccccc2c1=O (stereo not drawn)    3.66

Prompt: Hello, I am looking for reported normalized SmoIP GFP fluorescence with Drosophila S2 cl14 SmoIP sensor cells for `Cn1cc(C2=C(c3cn(C4CCN(Cc5ccccn5)CC4)c4ccccc34)C(=O)NC2=O)c2ccccc21` . Could you help?
Completion: 38.2

Prompt: Hello, I am looking for reported normalized SmoIP GFP fluorescence with Drosophila S2 cl14 SmoIP sensor cells for `Cc1ccccc1-n1c(Cn2ncc3c(N)ncnc32)nc2cccc(C)c2c1=O` . Could you help?
Completion: -6.79

====

system: Drosophila S2 cl14 SmoIP sensor cells; assay: normalized SmoIP GFP fluorescence (untreated unstimulated = 0%, untreated Hh-stimulated = 100%); higher = more Smo activation sensor fluorescence; conditions: stimulation: Hh conditioned medium (+Hh); compound concentration: 2 uM; 24 h
Where a name gives a salt, the structure may show the parent alone.
Recorded normalized SmoIP GFP fluorescence by entry
Hi! Could you send only the number? It should be in %, unit omitted.

Recorded results for 5 compounds are shown here.
N[C@@H]1C[C@H]1c1ccccc1 [tranylcypromine-2-pcpa-hcl]    109
Cc1cccc(C(C)c2c[nH]cn2)c1C (configuration not stated) [medetomidine-hcl]    108
COC[C@H]1OC(=O)c2coc3c2[C@@]1(C)C1=C(C3=O)[C@@H]2CCC(=O)[C@@]2(C)C[C@H]1OC(C)=O [wortmannin]    73.6
C[C@@H]1O[C@@H](O[C@H]2C[C@@H](O)[C@]3(CO)[C@H]4[C@H](O)C[C@]5(C)[C@@H](C6=CC(=O)OC6)CC[C@]5(O)[C@@H]4CC[C@]3(O)C2)[C@H](O)[C@H](O)[C@H]1O [ouabain]    102
CN1[C@@H]2CC(O)C[C@H]1[C@@H]1O[C@@H]12 (some centres not stated) [scopine]    142

Prompt: Tell me the measured normalized SmoIP GFP fluorescence of CC(=O)Nc1ccc(OC[C@](C)(O)C(=O)Nc2ccc([N+](=O)[O-])c(C(F)(F)F)c2)cc1 [Andarine] , please.
Completion: 107

Prompt: Tell me the measured normalized SmoIP GFP fluorescence of C[C@]12N[C@H](Cc3ccccc31)c1ccccc12 [mk-801-maleate] , please.
Completion: 103

Prompt: Tell me the measured normalized SmoIP GFP fluorescence of C[C@H]1CCC/C=C/[C@@H]2C[C@H](O)C[C@H]2[C@H](O)/C=C/C(=O)O1 [brefeldin-a] , please.
Completion: 101

Prompt: Tell me the measured normalized SmoIP GFP fluorescence of COC(=O)C1=CCCN(C)C1 [arecoline] , please.
Completion: 130

Prompt: Tell me the measured normalized SmoIP GFP fluorescence of C[C@]12CC[C@H]3[C@@H](CC[C@@]45O[C@@H]4C(O)=C(C#N)C[C@]35C)[C@@H]1CC[C@@H]2O [Trilostane] , please.
Completion: 109

Prompt: Tell me the measured normalized SmoIP GFP fluorescence of CN1[C@@H]2C[C@@H](OC(=O)[C@H](CO)c3ccccc3)C[C@H]1[C@@H]1O[C@@H]12 [Scopolamine-hydrobromide] , please.
Completion: 113

Prompt: Tell me the measured normalized SmoIP GFP fluorescence of `CCN(CC)C(=O)c1ccc(C2=CC3(CCNCC3)Oc3cccc(O)c32)cc1` , please.
Completion: 99.7

Prompt: Tell me the measured normalized SmoIP GFP fluorescence of O=c1[nH]c2ccc(Cl)cc2c(N[C@@H]2CN3CCC2CC3)c1-c1nc2ccccc2[nH]1 [chir-124] , please.
Completion: 253

Prompt: Tell me the measured normalized SmoIP GFP fluorescence of Cc1cccc(Cc2c[nH]cn2)c1C [detomidine-hcl] , please.
Completion: 139

Prompt: Tell me the measured normalized SmoIP GFP fluorescence of CCCN1CCOC2c3cc(O)ccc3OCC21 (configuration not stated) , please.
Completion: 113

Prompt: Tell me the measured normalized SmoIP GFP fluorescence of CCCN1C[C@H](CSC)C[C@@H]2c3cccc4[nH]cc(c34)C[C@H]21 [Pergolide-mesylate] , please.
Completion: 119

Prompt: Tell me the measured normalized SmoIP GFP fluorescence of CCOc1ccccc1-n1c(C(C)N2CCN(C(=O)COc3ccc(Cl)cc3)CC2)nc2ccccc2c1=O (configuration not stated) [erastin] , please.
Completion: 134

====

Recorded normalized SmoIP GFP fluorescence by entry
test system: Drosophila S2 cl14 SmoIP sensor cells; test: normalized SmoIP GFP fluorescence (untreated unstimulated = 0%, untreated Hh-stimulated = 100%); higher = more Smo activation sensor fluorescence; settings: stimulation: mock conditioned medium (-Hh); compound concentration: 2 uM; 24 h
Structures can show the parent of a compound that is named as a salt.
Hi! Could you send only the number? It should be in %, unit omitted.

Recorded results for 4 compounds are shown here.
C[C@]12CCC(=O)C(O)=C1CC[C@@H]1[C@@H]2CC[C@]2(C)C(=O)CC[C@@H]12 [Formestane]    -2.2
C[C@H]1CCC/C=C/[C@@H]2C[C@H](O)C[C@H]2[C@H](O)/C=C/C(=O)O1 [brefeldin-a]    -4.58
CNCC(=O)c1ccc(O)c(O)c1 [adrenalone-hcl]    -3.39
C[C@]12CC[C@H](O)CC1=CC[C@@H]1[C@@H]2CC[C@]2(C)C(=O)CC[C@@H]12 [Dehydroepiandrosterone(DHEA)]    -12.4

Prompt: Tell me the measured normalized SmoIP GFP fluorescence of COc1ccc(C(=O)N2CCCC2=O)cc1 [Aniracetam] , please.
Completion: -0.588

====

Recorded normalized SmoIP GFP fluorescence by entry
tested on: Drosophila S2 cl14 SmoIP sensor cells; assay: normalized SmoIP GFP fluorescence (untreated unstimulated = 0%, untreated Hh-stimulated = 100%); higher = more Smo activation sensor fluorescence; conditions: stimulation: mock conditioned medium (-Hh); compound concentration: 2 uM; 24 h;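 note: flow cytometry read-out as median GFP intensity of gated cells, compounds added 30 min before Hh-conditioned or mock medium, mock-treated cells serving as unstimulated baseline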
Hi! Could you send only the number? It should be in %, unit omitted.

Prompt: Tell me the measured normalized SmoIP GFP fluorescence of C[C@]12N[C@H](Cc3ccccc31)c1ccccc12 [mk-801-maleate] , please.
Completion: -3.16
